- testedOn: peroxidase-anti-peroxidase (PAP) immune complex (preformed immune complex of peroxidase and anti-peroxidase IgG)
- procedureSummary: reverse ELISA, competition: peptide with immune complexes, IgG4-coated plate (competitor: IgG4); lower = more inhibition
Positions of bridges follow the written chain, without caps; N, C: chain ends. No end group written: not given here.
Kindly supply the reported OD 405 nm values for the records listed here.
Enter the number, and then the unit.

# query: OD 405 nm of entry RCARHLGELVWCT (disulfide 2-12 (inferred)) [… peptide (SEQ ID NO:5)]
0.191 OD

# query: OD 405 nm of entry PCARHLGELVWCT (disulfide 2-12 (inferred)) [… peptide (SEQ ID NO:41)]
0.129 OD

# query: OD 405 nm of entry DCARHLGELVWCT (disulfide 2-12 (inferred)) [… peptide (SEQ ID NO:4)]
0.096 OD

# query: OD 405 nm of entry DCAWHLGELAACT (cyclized by a disulfide bond between the two cysteine residues) [… peptide (SEQ ID NO:42)]
0.557 OD

# query: OD 405 nm of entry APPDCARHLGELVWCT (cyclized by a disulfide bond between the two cysteine residues) [… peptide (printed in Table 8 with SEQ ID NO:14)]
0.107 OD
